- SYSTEM_NAME: Thyroid hormone receptor beta (Homo sapiens, UniProt P10828)
- Sequence (P10828 whole entry): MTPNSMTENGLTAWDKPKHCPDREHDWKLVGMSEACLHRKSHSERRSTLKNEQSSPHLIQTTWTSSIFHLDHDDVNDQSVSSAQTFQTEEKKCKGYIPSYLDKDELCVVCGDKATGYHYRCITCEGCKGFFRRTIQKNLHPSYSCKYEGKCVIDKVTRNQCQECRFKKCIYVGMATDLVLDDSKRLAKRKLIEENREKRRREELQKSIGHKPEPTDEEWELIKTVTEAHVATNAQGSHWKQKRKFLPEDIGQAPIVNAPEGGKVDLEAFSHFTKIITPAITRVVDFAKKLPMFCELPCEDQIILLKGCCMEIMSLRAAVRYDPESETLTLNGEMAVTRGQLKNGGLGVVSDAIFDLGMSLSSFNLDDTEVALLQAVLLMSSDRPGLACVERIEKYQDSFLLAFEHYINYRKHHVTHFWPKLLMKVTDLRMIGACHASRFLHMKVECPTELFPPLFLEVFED
- PROTOCOL_NOTES: Inhibitory activity against human Thyroid hormone receptor beta
REPORTED_METRIC: IC50 (µM)

CCOc1c(Br)cc(CC(=O)O)cc1Br    32

[I] CCCCOc1c(Br)cc(CC(=O)O)cc1Br
[II] CCCCCOc1c(Br)cc(CC(=O)O)cc1Br
[III] CCC(CC)COc1c(Br)cc(CC(=O)O)cc1Br
[IV] CC(C)CCOc1c(Br)cc(CC(=O)O)cc1Br
Arrange the 4 entries by IC50 so the values rise. Field: ranking. Enter the labels in the order requested.
III, I, II, IV
(III: 0.8 µM, I: 1.9 µM, II: 5.7 µM, IV: 18 µM)

[A] CC(C)CCOc1c(Br)cc(CCC(=O)O)cc1Br
[B] CCCCc1oc2ccccc2c1C(=O)c1cc(I)c(CCN(CC)CC)c(I)c1
Please compare: A and B . Report which one has the smaller IC50 value. Kindly give the label for the entry you pick.
B
(B: 0.6 µM, A: 1.8 µM)

[P] CCC(CC)COc1c(Br)cc(CCC(=O)O)cc1Br
[Q] CCCCCCOc1c(Br)cc(CC(=O)O)cc1Br
Returns: the argument ( P or Q ) having the larger IC50. Pick one; state its label.
Q
(Q: 1.5 µM, P: 0.81 µM)

// provenance: ChEMBL document CHEMBL1143623
